System: NCI-H460
Method notes: NCI tumour cell line growth inhibition, 48 h
The source made the active and inactive calls. No stated cut-off is given here; in the data, active = GI50 up to about 1.1 µM and inactive = higher.
Outcome (select one): active, inactive

{"Compound": "O=[N+]([O-])C1=Cc2cc(Cl)ccc2OC1c1cccc2ccccc12 (stereo not given)", "Label": "inactive"}
{"Compound": "N#CC(=S)Nc1cccc(Cl)c1", "Label": "inactive"}
{"Compound": "COC(=O)C1=C2Nc3ccccc3C23CCN2C(O)C4(CC5CC67CCOC6CCN6CCC8(c9cccc(OC)c9N(C4)C58O)C67)C4OCCC4(C1)C23 (stereo not given)", "Label": "inactive"}

[Q] Per the records of this test, what outcome belongs to `CC1=C(/C=C/C(=O)O)C(C)(C)CCC1` ?
[A] inactive

[Q] Recorded test outcome, item `O=C(c1ccccc1)c1ccc(N2C(=O)/C(=C/c3cccc([N+](=O)[O-])c3)N=C2c2ccccc2)c(N2C(=O)/C(=C/c3cccc([N+](=O)[O-])c3)N=C2c2ccccc2)c1`
[A] inactive

[Q] Any idea what this test logged for O=C(O)CCC1c2[nH]c3ccccc3c2CCN1Cc1ccccc1 (stereo not given) ?
[A] inactive

[Q] Query: recorded result category for `COc1cccc(/N=N/C(=N/NC(=O)c2cc(Cl)ccc2O)c2ccc(N(CCC#N)CCC#N)cc2C)c1` in this test
[A] inactive

[Q] Could you kindly confirm the outcome this assay logged for `CCOC(=O)[C@@H](Cc1ccc(CCl)cc1)NC(C)=O` ?
[A] inactive

[Q] Call for entry `COc1cc(/C=C\c2ccc(Cl)cc2)cc(OC)c1OC` :
[A] active

[Q] Could you check what this test reported for `CCCCCCc1ccc(CCCCCCCC(=O)O)o1` ?
[A] inactive
